Recorded measurements of hERG current change (%, negative = inhibition) at 10uM, one per entry
Biological target: human ether-à-go-go-related gene (hERG) potassium channel (human);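 note: peak tail current of the secondary pulse compared with the same well before compound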
Sequence (Q12809 whole entry, looked up): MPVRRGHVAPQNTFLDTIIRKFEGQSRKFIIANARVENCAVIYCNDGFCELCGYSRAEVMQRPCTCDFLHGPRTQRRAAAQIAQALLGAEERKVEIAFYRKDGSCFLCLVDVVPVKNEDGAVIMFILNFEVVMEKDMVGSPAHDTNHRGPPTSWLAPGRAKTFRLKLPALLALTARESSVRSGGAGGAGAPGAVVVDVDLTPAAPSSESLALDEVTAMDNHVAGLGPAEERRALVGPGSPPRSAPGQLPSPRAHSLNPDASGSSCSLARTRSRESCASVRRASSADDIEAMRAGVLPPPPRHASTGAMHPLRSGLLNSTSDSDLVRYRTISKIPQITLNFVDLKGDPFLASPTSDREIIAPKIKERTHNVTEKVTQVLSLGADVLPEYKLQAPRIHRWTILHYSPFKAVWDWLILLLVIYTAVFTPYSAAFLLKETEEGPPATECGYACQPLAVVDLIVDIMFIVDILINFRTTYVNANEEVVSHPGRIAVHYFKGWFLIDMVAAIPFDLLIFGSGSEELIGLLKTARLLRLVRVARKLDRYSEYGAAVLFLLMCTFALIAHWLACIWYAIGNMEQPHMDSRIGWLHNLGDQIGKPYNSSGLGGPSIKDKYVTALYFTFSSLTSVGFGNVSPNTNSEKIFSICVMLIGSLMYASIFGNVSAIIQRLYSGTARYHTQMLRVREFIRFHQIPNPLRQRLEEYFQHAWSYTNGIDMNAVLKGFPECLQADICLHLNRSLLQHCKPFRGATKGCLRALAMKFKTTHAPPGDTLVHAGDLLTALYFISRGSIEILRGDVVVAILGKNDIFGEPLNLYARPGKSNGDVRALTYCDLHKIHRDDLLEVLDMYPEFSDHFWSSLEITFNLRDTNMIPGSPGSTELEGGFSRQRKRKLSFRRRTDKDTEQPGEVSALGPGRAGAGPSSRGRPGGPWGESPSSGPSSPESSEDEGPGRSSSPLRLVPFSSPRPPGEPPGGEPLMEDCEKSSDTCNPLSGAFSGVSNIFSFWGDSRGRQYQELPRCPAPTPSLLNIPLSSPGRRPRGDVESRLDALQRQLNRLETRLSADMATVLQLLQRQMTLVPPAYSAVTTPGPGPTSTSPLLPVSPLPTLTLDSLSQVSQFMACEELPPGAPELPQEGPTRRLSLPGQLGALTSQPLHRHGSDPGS
Test: primary screen, population patch clamp on CHO cells stably expressing hERG; higher = less effect of the substance
Out of some 310,000 compounds screened, about 14,000 (4.5%) showed an effect of 50% or more. The effect is printed as a negative number. This excerpt belongs to a sample that is enriched for strong results.
Please give a number only; it is taken to be in %.

1. CS(=O)(=O)N1CCN(C(=O)c2cc3ccccc3oc2=O)CC1; -0.0734
2. Cc1ccc(S(=O)(=O)N(C)/N=C/C=C/c2ccccc2)cc1; 0.391
3. O=C(COc1ccccc1)Nc1nnc(COc2ccccc2)s1; 4.24
4. CCC(=O)c1ccc(N2CCN(C(=O)c3cc([N+](=O)[O-])ccc3F)CC2)c(F)c1; -42.9
5. Cc1ccccc1-n1cnc2cc(NCc3cccs3)ccc21; -31

Q. # query: hERG current change (%, negative = inhibition) at 10uM of entry CCn1cc(C(=O)N2CCCC(C(=O)c3ccc4ccccc4c3)C2)cn1 (stereo not shown)
A. -18.1

Q. # query: hERG current change (%, negative = inhibition) at 10uM of entry CCOc1ccc(CCNC(=O)COC(=O)c2cccnc2OCC)cc1OCC
A. -1.87

Q. # query: hERG current change (%, negative = inhibition) at 10uM of entry Nn1c(COc2ccc(Cl)cc2)nc2ccccc2c1=O
A. -34.8

Q. # query: hERG current change (%, negative = inhibition) at 10uM of entry O=C(COc1ccccc1Cl)Nc1cccc(S(=O)(=O)NC2=NCCCCC2)c1
A. -5.14

Q. # query: hERG current change (%, negative = inhibition) at 10uM of entry Cc1ccc(SCC(=O)Nc2cccc(C(=O)NC(C)(C)C)c2)cc1
A. 4.17

---

Recorded measurements of hERG current change (%, negative = inhibition) at 10uM, one per entry
Molecular target: human ether-à-go-go-related gene (hERG) potassium channel (human);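 note: peak tail current of the secondary pulse compared with the same well before compound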
Assay: primary screen, population patch clamp on CHO cells stably expressing hERG; higher = less effect of the substance
In all, about 310,000 compounds went through this assay and about 14,000 (4.5%) showed an effect of 50% or more. Effects have a minus sign here. What follows is part of a selection rich in strong results, with near analogues and random picks from the rest.
Please give a number only; it is taken to be in %.

1. O=C(CN(c1ccccc1)S(=O)(=O)c1ccccc1)N1CCN(Cc2ccc3c(c2)OCO3)CC1; -33.4
2. CCN1CCN(C(=O)CN(c2ccc(F)cc2)S(=O)(=O)c2ccc(OC)c(OC)c2)CC1; -66.8
3. COc1ccc(N(CC(=O)N2CCN(Cc3ccccc3)CC2)S(=O)(=O)c2ccccc2)cc1; -26.3

Q. Given the entry COc1ccc(N(CC(=O)N2CCN(Cc3ccc4c(c3)OCO4)CC2)S(C)(=O)=O)cc1OC , what hERG current change (%, negative = inhibition) at 10uM was observed with human ether-à-go-go-related gene (hERG) potassium channel (human)?
A. 9.47

Q. Given the entry COC1CCCN(Cc2cn(C)nc2-c2ccc(Oc3ccccc3)cc2)C1 (stereo not drawn) , what hERG current change (%, negative = inhibition) at 10uM was observed with human ether-à-go-go-related gene (hERG) potassium channel (human)?
A. -40.7

Q. Given the entry Cc1ccc(S(=O)(=O)N(C)CC(=O)N2CCN(Cc3ccccc3)CC2)cc1 , what hERG current change (%, negative = inhibition) at 10uM was observed with human ether-à-go-go-related gene (hERG) potassium channel (human)?
A. -24.6

Q. Given the entry Cn1cc(CN2CCCC(CO)C2)c(-c2ccc(Oc3ccccc3)cc2)n1 (stereo not drawn) , what hERG current change (%, negative = inhibition) at 10uM was observed with human ether-à-go-go-related gene (hERG) potassium channel (human)?
A. -26.2

Q. Given the entry CS(=O)(=O)N(CC(=O)N1CCN(Cc2ccccc2)CC1)c1ccc2c(c1)OCCO2 , what hERG current change (%, negative = inhibition) at 10uM was observed with human ether-à-go-go-related gene (hERG) potassium channel (human)?
A. -5.94

Q. Given the entry CC1CN(Cc2cn(C)nc2-c2ccc(Oc3ccccc3)cc2)CCN1C (stereo not drawn) , what hERG current change (%, negative = inhibition) at 10uM was observed with human ether-à-go-go-related gene (hERG) potassium channel (human)?
A. -57.2

Q. Given the entry CCN(CC)C(=O)C1CCN(Cc2cn(C)nc2-c2ccc(Oc3ccccc3)cc2)CC1 , what hERG current change (%, negative = inhibition) at 10uM was observed with human ether-à-go-go-related gene (hERG) potassium channel (human)?
A. -46.9

Q. Given the entry COc1ccc(S(=O)(=O)N(CC(=O)N2CCN(C)CC2)c2ccc(C)cc2)cc1OC , what hERG current change (%, negative = inhibition) at 10uM was observed with human ether-à-go-go-related gene (hERG) potassium channel (human)?
A. -11

Q. Given the entry Cc1cc(Br)ccc1NC(=O)c1cnc(N2CCN(c3ccccn3)CC2)c2ccccc12 , what hERG current change (%, negative = inhibition) at 10uM was observed with human ether-à-go-go-related gene (hERG) potassium channel (human)?
A. 10

Q. Given the entry Cc1c(N2C(=O)/C(=C\C3CC=CCC3)SC2=S)c(=O)n(-c2ccccc2)n1C (stereo not drawn) , what hERG current change (%, negative = inhibition) at 10uM was observed with human ether-à-go-go-related gene (hERG) potassium channel (human)?
A. -6.68

Q. Given the entry Cc1ccc(S(=O)(=O)N(C)c2ccc(C(=O)N3CCN(Cc4ccc5c(c4)OCO5)CC3)cc2)cc1 , what hERG current change (%, negative = inhibition) at 10uM was observed with human ether-à-go-go-related gene (hERG) potassium channel (human)?
A. -44.1

Q. Given the entry CCOC(=O)C1CCN(Cc2cn(C)nc2-c2ccc(Oc3ccccc3)cc2)CC1 , what hERG current change (%, negative = inhibition) at 10uM was observed with human ether-à-go-go-related gene (hERG) potassium channel (human)?
A. -44.9

Q. Given the entry COCCN1CCCC(CNCc2cn(C)nc2-c2ccc(Oc3ccccc3)cc2)C1 (stereo not drawn) , what hERG current change (%, negative = inhibition) at 10uM was observed with human ether-à-go-go-related gene (hERG) potassium channel (human)?
A. -33.2

Q. Given the entry Cc1ccc(S(=O)(=O)N(C)CC(=O)N2CCN(Cc3ccc4c(c3)OCO4)CC2)cc1 , what hERG current change (%, negative = inhibition) at 10uM was observed with human ether-à-go-go-related gene (hERG) potassium channel (human)?
A. -66.6

Q. Given the entry C[C@H]1C(=O)N(C)CCN1Cc1cn(C)nc1-c1ccc(Oc2ccccc2)cc1 , what hERG current change (%, negative = inhibition) at 10uM was observed with human ether-à-go-go-related gene (hERG) potassium channel (human)?
A. -4.92
